Listed here are compounds together with their documented EC50.
# Tested on: CV-B4
# Test Description: Plaque reduction assay CV-B4
# Type: cell-based, human enterovirus B
# Conditions: Enterovirus B, CVB4; 50% reduction of plaque number; read-out: EC50 CV-B4

Take a look at these entries with their results.
Compound	Measured Property	Obs Value
CC(C)(C)c1ccc(-c2nc3cc(Cl)c(Cl)cc3[nH]2)cc1	EC50	> 9 µM
CC(C)c1ccc(-c2nc3cc(Cl)ccc3[nH]2)cc1	EC50	≥ 100 µM
CC(C)(C)c1ccc(-c2nc3cc(F)ccc3[nH]2)cc1	EC50	> 100 µM
CC(C)(C)c1ccc(-c2nc3ccccc3[nH]2)cc1	EC50	> 46 µM

For reference, reported EC50 for CC(C)c1ccc(-c2nc3cc(F)ccc3[nH]2)cc1 stands at > 100 µM

For reference, reported EC50 for C[C@@]1(O)[C@H](O)[C@@H](CO)O[C@H]1n1ccc(N)nc1=O [NM 107, 2′-C-methylcytidine, reference compound] stands at 29 µM

For reference, reported EC50 for CC(C)c1ccc(-c2nc3cc(F)c(F)cc3[nH]2)cc1 stands at > 100 µM

For reference, reported EC50 for CC(C)(C)c1ccc(-c2nc3cc(Cl)ccc3[nH]2)cc1 stands at 25.5 µM

For reference, reported EC50 for CC(C)c1ccc(-c2nc3ccccc3[nH]2)cc1 stands at > 60 µM

For reference, reported EC50 for CC(C)(C)c1ccc(-c2nc3cc(F)c(F)cc3[nH]2)cc1 stands at > 100 µM

---

# Test Description: Cytotoxicity assay, mock-infected LLC-MK2
# Format: cell-based
# Conditions: Macaca mulatta, mock-infected LLC-MK2 cells, mock-infected LLC-MK2, MTT
Listed here are compounds together with their documented CC50 at 5 days.
# number only, unit µM dropped from output

For reference, reported CC50 at 5 days for CC(C)(C)c1ccc(-c2nc3ccccc3[nH]2)cc1 stands at 6.5

---

# Test system: EV-D68
# Test Description: Inhibition of EV-D68-induced cytopathogenicity in HeLa cells (MTT)
# Type: cell-based, human enterovirus D 68 strain Fermon
# Conditions: Enterovirus D, EVD68, m.o.i. 0.01
pEC50: −log10 of the molar value.
Measured Property: pEC50

Molecule	Assayed Target	pEC50
CC(C)c1ccc(-c2nc3cc(Cl)c(Cl)cc3[nH]2)cc1 [Compound 3a]	EV-D68	< 5.10
CC(C)(C)c1ccc(-c2nc3cc(F)c(F)cc3[nH]2)cc1 [Compound 5b]	EV-D68	5.40

For reference, reported pEC50 for CC(C)(C)c1ccc(-c2nc3cc(F)ccc3[nH]2)cc1 [Compound 4b] stands at < 4.00

For reference, reported pEC50 for Cc1cc(CCCOc2c(C)cc(-c3noc(C(F)(F)F)n3)cc2C)on1 [Plc, Pleconaril, reference compound] stands at 6.52

For reference, reported pEC50 for CC(C)c1ccc(-c2nc3cc(F)c(F)cc3[nH]2)cc1 [Compound 5a] stands at < 4.00

For reference, reported pEC50 for CC(C)c1ccc(-c2nc3cc(Cl)ccc3[nH]2)cc1 [Compound 2a] stands at < 4.00

For reference, reported pEC50 for CC(C)(C)c1ccc(-c2nc3cc(Cl)c(Cl)cc3[nH]2)cc1 [Compound 3b] stands at < 5.19

---

# Test system: CV-B3
# Test Description: Plaque reduction assay CV-B3
# Format: cell-based, human enterovirus B
# Conditions: Enterovirus B, CVB3; 50% reduction of plaque number; read-out: EC50 CV-B3
Listed here are compounds together with their documented EC50.

Take a look at these entries with their results.
Compound	Measured Property	Obs Value
CC(C)(C)c1ccc(-c2nc3cc(Cl)c(Cl)cc3[nH]2)cc1	EC50	> 9 µM
CC(C)c1ccc(-c2nc3cc(F)ccc3[nH]2)cc1	EC50	> 100 µM
CC(C)c1ccc(-c2nc3ccccc3[nH]2)cc1	EC50	> 60 µM
CC(C)(C)c1ccc(-c2nc3ccccc3[nH]2)cc1	EC50	> 46 µM
CC(C)(C)c1ccc(-c2nc3cc(F)ccc3[nH]2)cc1	EC50	> 100 µM
CC(C)(C)c1ccc(-c2nc3cc(Cl)ccc3[nH]2)cc1	EC50	33 µM
Cc1cc(CCCOc2c(C)cc(-c3noc(C(F)(F)F)n3)cc2C)on1 [Plc, Pleconaril, reference compound]	EC50	2 µM
CC(C)c1ccc(-c2nc3cc(F)c(F)cc3[nH]2)cc1	EC50	> 100 µM

For reference, reported EC50 for CC(C)(C)c1ccc(-c2nc3cc(F)c(F)cc3[nH]2)cc1 stands at > 100 µM

For reference, reported EC50 for CC(C)c1ccc(-c2nc3cc(Cl)ccc3[nH]2)cc1 stands at 17 µM

---

Listed here are compounds together with their documented CC50 at 3 days.
# Test Description: Cytotoxicity assay, MTT, mock-infected Vero-76
# Assay type: cell-based
# Conditions: Cercopithecus aethiops, mock-infected Vero-76 cells; mock-infected Vero-76, MTT; value marked *, after 3 * days
# number only, unit µM dropped from output

Take a look at these entries with their results.
Compound	Uom	Obs Value
CC(C)c1ccc(-c2nc3cc(Cl)c(Cl)cc3[nH]2)cc1 [Compound 3a]	µM	8
CC(C)(C)c1ccc(-c2nc3ccccc3[nH]2)cc1 [Compound 1b]	µM	40

Alright, here's another compound for you.
For reference, reported CC50 at 3 days for CC(C)c1ccc(-c2nc3ccccc3[nH]2)cc1 [Compound 1a] stands at 24

---

# Test Description: Cytotoxicity assay, MTT, mock-infected BHK-21
# Type: cell-based
# Conditions: Syrian hamster, mock-infected BHK-21 cells; mock-infected BHK-21, MTT
Listed here are compounds together with their documented CC50.

Take a look at these entries with their results.
Smi	CC50
CC(C)c1ccc(-c2nc3cc(F)c(F)cc3[nH]2)cc1	> 100 µM
CC(C)c1ccc(-c2nc3cc(Cl)c(Cl)cc3[nH]2)cc1	8 µM
CC(C)(C)c1ccc(-c2nc3cc(Cl)ccc3[nH]2)cc1	> 100 µM
CC(C)c1ccc(-c2nc3cc(Cl)ccc3[nH]2)cc1	> 100 µM
CC(C)(C)c1ccc(-c2nc3cc(F)c(F)cc3[nH]2)cc1	> 100 µM

For reference, reported CC50 for CC(C)(C)c1ccc(-c2nc3cc(F)ccc3[nH]2)cc1 stands at > 100 µM

For reference, reported CC50 for CC(C)(C)c1ccc(-c2nc3cc(Cl)c(Cl)cc3[nH]2)cc1 stands at 9 µM

For reference, reported CC50 for CC(C)c1ccc(-c2nc3cc(F)ccc3[nH]2)cc1 stands at > 100 µM

For reference, reported CC50 for CC(C)c1ccc(-c2nc3ccccc3[nH]2)cc1 stands at 36 µM

For reference, reported CC50 for CC(C)(C)c1ccc(-c2nc3ccccc3[nH]2)cc1 stands at 20 µM

---

# Test Description: Cytotoxicity assay, MTT, mock-infected Vero-76
# Format: cell-based
# Conditions: Cercopithecus aethiops, mock-infected Vero-76 cells; mock-infected Vero-76, MTT; value printed without *
Measured Property: CC50

Take a look at these entries with their results.
Compound	Measured Property	Obs Value
CC(C)(C)c1ccc(-c2nc3cc(F)c(F)cc3[nH]2)cc1 [Compound 5b]	CC50	> 100 µM
CC(C)c1ccc(-c2nc3cc(Cl)c(Cl)cc3[nH]2)cc1 [Compound 3a]	CC50	25.5 µM
CCOC(=O)/C=C/[C@H](C[C@@H]1CCNC1=O)NC(=O)[C@@H](CC(=O)[C@@H](NC(=O)c1cc(C)on1)C(C)C)Cc1ccc(F)cc1 [Rup, Rupintrivir, reference compound]	CC50	> 100 µM
CC(C)(C)c1ccc(-c2nc3cc(F)ccc3[nH]2)cc1 [Compound 4b]	CC50	> 100 µM
Cc1cc(CCCOc2c(C)cc(-c3noc(C(F)(F)F)n3)cc2C)on1 [Plc, Pleconaril, reference compound]	CC50	> 100 µM

For reference, reported CC50 for CC(C)c1ccc(-c2nc3cc(F)c(F)cc3[nH]2)cc1 [Compound 5a] stands at > 100 µM

---

Listed here are compounds together with their documented CC50 at 5 days.
# Test Description: Cytotoxicity assay, mock-infected LLC-MK2
# Assay type: cell-based
# Conditions: Macaca mulatta, mock-infected LLC-MK2 cells, mock-infected LLC-MK2, MTT
# number only, unit µM dropped from output

Smi	Obs Value
CC(C)c1ccc(-c2nc3cc(Cl)c(Cl)cc3[nH]2)cc1	7
CC(C)c1ccc(-c2nc3cc(F)c(F)cc3[nH]2)cc1	100
CC(C)(C)c1ccc(-c2nc3cc(Cl)c(Cl)cc3[nH]2)cc1	12
CC(C)c1ccc(-c2nc3cc(F)ccc3[nH]2)cc1	29.5

For reference, reported CC50 at 5 days for CC(C)(C)c1ccc(-c2nc3cc(Cl)ccc3[nH]2)cc1 stands at 12

For reference, reported CC50 at 5 days for CC(C)c1ccc(-c2nc3ccccc3[nH]2)cc1 stands at 6

Ref: paper PMC7823780
